# assay.system: Protein deacetylase HDAC6 (Homo sapiens)
# Sequence (Q9UBN7 whole entry): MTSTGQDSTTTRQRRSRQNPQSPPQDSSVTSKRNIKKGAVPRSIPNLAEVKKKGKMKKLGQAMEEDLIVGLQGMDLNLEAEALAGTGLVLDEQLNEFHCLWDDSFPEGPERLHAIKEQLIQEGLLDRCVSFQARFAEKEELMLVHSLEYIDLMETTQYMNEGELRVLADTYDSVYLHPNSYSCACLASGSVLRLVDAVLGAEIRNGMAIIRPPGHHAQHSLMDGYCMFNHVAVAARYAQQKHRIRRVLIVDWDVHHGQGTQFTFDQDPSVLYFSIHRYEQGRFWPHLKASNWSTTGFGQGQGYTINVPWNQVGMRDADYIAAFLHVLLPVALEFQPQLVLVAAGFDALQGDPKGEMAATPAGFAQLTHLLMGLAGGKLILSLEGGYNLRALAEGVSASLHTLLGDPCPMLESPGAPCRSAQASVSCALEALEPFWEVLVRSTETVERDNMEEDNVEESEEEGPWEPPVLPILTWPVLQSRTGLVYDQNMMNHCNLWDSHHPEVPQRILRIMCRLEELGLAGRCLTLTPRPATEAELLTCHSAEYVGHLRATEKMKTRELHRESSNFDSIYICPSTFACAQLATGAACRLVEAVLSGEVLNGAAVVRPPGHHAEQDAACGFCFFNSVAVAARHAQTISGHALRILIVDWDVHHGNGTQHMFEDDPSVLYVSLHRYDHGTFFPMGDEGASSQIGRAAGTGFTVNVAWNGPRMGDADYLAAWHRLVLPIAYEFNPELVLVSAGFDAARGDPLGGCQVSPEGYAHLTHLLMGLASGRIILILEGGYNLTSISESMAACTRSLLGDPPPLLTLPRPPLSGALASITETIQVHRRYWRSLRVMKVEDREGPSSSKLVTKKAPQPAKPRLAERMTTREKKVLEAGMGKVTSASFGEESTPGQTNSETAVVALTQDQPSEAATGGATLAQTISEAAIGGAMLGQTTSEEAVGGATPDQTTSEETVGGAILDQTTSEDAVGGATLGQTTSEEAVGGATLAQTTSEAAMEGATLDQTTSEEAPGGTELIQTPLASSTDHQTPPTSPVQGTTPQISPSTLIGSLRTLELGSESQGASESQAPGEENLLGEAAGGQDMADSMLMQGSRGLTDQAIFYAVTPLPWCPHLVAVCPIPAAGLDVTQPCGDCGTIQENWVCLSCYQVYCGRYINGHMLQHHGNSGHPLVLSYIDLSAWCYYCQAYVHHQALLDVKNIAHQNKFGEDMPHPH
# assay.summary: Inhibition of human recombinant HDAC6
Each record here notes measured pIC50.
Worth noting: pIC50 values are minus log10 of concentrations stated in mol/L.

**Query** Could you share which pIC50 value was measured for `O=C(/C=C/c1cccc(-c2nc3ccccc3n2-c2ccc(Cl)cc2)c1)NO` ?
**Result** 7.00

***
**Query** What measured pIC50 goes with `Cn1c(-c2cccc(/C=C/C(=O)NO)c2)nc2ccccc21` ?
**Result** 7.10
